System: Klebsiella aerogenes DSM 30053
PROTOCOL NOTES: growth (OD595) fold change vs plate DMSO controls (fold change (ratio)); higher = more growth
CONDITION SUMMARY: incubation time: 27 h, anaerobic, 37 °C
Where a name gives a salt, the structure may show the parent alone.
Please use true whenever growth is not below 1, and false whenever it is.

*Q* Does growth meet or surpass 1 for CC(=O)Nc1ccc(CC(=O)O)cc1 [Actarit] (20 µM) ?
*A* true

*Q* // inclusive: growth at least 1? input: CN(C)CCOC(=O)C(c1ccccc1)C1(O)CCCC1 (stereo not given) [Cyclopentolate hydrochloride] (20 µM)
*A* true

*Q* Check if growth >= 1 (inclusive). Item: CCOC(=O)[C@H](CCc1ccccc1)N[C@@H](C)C(=O)N1[C@H](C(=O)O)C[C@@H]2CCC[C@@H]21 [Ramipril] (20 µM)
*A* true

*Q* Reported growth at or above 1? Nc1c2c(nc3ccccc13)CCCC2 [Tacrine hydrochloride] (20 µM)
*A* false

*Q* Does C=C1CC[C@H](O)C/C1=C/C=C1\CCC[C@]2(C)[C@@H]([C@H](C)CCCC(C)C)CC[C@@H]12 [Cholecalciferol] (20 µM) have a reported growth of at least 1?
*A* false
